# Protocol details: Simulated Intestinal Fluid (SIF) Stability Assay
# Type: in vitro ADME
# Measurement parameters: simulated gi fluid, porcine pancreatin, 37° C.; monomers, Table 6
Where a SMILES comes first, the peptide text is derived from it.
Below, each of the molecules is paired with its reported half-life value.

{"Molecule": "CC(C)C[C@@H]1NC(=O)[C@H]([C@@H](C)O)NC(=O)[C@H](CC(=O)O)NC(=O)[C@H](CO)NC(=O)[C@H](CCCNC(=N)N)N(C)C(=O)c2ccccc2CSC(C)(C)[C@@H](C(=O)N[C@@H](Cc2c[nH]c3ccccc23)C(=O)N[C@@H](Cc2ccc(O)cc2)C(=O)N(C)[C@@H](CCCCN)C(N)=O)NC1=O [compound 63] (HELM PEPTIDE1{[meR].S.D.T.L.[Pen].W.Y.[meK].[am]}|CHEM1{[O=C(c1ccccc1C[*:2])[*:1]]}$PEPTIDE1,CHEM1,1:R1-1:R1|PEPTIDE1,CHEM1,6:R3-1:R2$$$V2.0)", "Observable": "half-life", "Result": "> 3 h"}

query: Form field: reported half-life of CC(C)C[C@@H]1NC(=O)[C@H]([C@@H](C)O)NC(=O)[C@H](CC(=O)O)NC(=O)[C@H](CO)NC(=O)[C@H](CCCNC(=N)N)N(C)C(=O)c2ccccc2CSC(C)(C)[C@@H](C(=O)N[C@@H](Cc2c[nH]c3ccccc23)C(=O)N[C@H](CCC(=O)O)C(=O)N[C@H](CCCCN)C(N)=O)NC1=O [compound 60] (HELM PEPTIDE1{[meR].S.D.T.L.[Pen].W.[dE].[dK].[am]}|CHEM1{[O=C(c1ccccc1C[*:2])[*:1]]}$PEPTIDE1,CHEM1,1:R1-1:R1|PEPTIDE1,CHEM1,6:R3-1:R2$$$V2.0)
result: > 3 h

###

# Tested target: RPMI 8866 cells (Homo sapiens, UniProt P13612+P26010)
# Sequence (P26010 20-798, one chain of several): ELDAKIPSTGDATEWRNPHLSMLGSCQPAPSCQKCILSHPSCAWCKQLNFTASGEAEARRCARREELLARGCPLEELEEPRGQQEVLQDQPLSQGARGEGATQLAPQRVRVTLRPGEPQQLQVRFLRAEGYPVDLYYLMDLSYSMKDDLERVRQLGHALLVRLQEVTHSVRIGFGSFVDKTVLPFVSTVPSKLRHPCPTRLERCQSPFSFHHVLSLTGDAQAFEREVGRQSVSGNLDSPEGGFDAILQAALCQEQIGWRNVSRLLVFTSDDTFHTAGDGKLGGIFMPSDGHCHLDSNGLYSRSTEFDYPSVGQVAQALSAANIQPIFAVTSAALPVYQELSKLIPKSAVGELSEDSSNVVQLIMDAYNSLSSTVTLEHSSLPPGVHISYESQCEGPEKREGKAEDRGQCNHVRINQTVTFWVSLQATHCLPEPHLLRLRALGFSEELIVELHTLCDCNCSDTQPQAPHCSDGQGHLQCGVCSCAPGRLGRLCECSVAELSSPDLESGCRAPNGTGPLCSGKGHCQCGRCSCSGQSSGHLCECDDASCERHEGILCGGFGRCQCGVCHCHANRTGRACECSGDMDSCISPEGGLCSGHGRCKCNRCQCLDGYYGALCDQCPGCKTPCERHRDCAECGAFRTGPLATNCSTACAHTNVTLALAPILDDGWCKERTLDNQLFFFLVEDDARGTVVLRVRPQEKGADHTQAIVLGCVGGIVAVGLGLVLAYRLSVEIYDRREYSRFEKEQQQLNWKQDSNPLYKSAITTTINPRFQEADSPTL
# Protocol details: α4β7-MAdCAM Cell Adhesion Assay
# Type: cell-based
# Measurement parameters: thioether peptide dimers, Table 7; read-out: Cell-Adhesion A4B7
Where a SMILES comes first, the peptide text is derived from it.
Observable: IC50

query: Form field: reported IC50 of CC(C)C[C@@H]1NC(=O)[C@H]([C@@H](C)O)NC(=O)[C@H](CC(=O)O)NC(=O)[C@H](CO)NC(=O)[C@H](CCCNC(=N)N)N(C)C(=O)c2ccccc2CSC(C)(C)[C@@H](C(=O)N[C@@H](Cc2c[nH]c3ccccc23)C(=O)N[C@H](CCC(=O)O)C(=O)N[C@H](CCCCN)C(N)=O)NC1=O [compound 212] (HELM PEPTIDE1{[meR].S.D.T.L.[Pen].W.[dE].[dK].[am]}|CHEM1{[O=C(c1ccccc1C[*:2])[*:1]]}$PEPTIDE1,CHEM1,1:R1-1:R1|PEPTIDE1,CHEM1,6:R3-1:R2$$$V2.0)
result: 25 to 100 nM

###

# Tested target: Jurkat E6.1 cells (Homo sapiens, UniProt P05556+P13612)
# Sequence (P13612 34-1032): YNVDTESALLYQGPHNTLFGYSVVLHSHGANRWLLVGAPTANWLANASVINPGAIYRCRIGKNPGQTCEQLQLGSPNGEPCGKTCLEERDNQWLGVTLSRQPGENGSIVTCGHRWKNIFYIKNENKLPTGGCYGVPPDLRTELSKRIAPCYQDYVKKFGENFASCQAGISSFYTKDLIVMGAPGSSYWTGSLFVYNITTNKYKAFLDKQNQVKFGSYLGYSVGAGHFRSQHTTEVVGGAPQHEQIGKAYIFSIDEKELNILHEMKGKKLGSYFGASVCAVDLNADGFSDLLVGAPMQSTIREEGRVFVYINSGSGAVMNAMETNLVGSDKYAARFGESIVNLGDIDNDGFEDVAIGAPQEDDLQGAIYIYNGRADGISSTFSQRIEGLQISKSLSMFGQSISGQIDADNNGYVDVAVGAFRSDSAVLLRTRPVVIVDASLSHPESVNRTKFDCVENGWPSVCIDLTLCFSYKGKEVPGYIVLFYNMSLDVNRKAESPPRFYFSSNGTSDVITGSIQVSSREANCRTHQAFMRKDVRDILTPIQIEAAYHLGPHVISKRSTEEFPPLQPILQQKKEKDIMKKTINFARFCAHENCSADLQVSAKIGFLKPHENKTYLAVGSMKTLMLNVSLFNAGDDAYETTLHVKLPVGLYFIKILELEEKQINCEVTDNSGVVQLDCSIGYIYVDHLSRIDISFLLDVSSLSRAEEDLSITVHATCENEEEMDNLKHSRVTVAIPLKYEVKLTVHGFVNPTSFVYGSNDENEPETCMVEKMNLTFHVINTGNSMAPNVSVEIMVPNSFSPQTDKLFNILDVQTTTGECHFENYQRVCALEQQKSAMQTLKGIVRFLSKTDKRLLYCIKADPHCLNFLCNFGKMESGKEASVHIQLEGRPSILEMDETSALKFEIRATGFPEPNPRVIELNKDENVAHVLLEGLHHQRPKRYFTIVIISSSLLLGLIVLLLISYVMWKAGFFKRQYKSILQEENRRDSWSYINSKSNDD
# Sequence (P05556 21-798): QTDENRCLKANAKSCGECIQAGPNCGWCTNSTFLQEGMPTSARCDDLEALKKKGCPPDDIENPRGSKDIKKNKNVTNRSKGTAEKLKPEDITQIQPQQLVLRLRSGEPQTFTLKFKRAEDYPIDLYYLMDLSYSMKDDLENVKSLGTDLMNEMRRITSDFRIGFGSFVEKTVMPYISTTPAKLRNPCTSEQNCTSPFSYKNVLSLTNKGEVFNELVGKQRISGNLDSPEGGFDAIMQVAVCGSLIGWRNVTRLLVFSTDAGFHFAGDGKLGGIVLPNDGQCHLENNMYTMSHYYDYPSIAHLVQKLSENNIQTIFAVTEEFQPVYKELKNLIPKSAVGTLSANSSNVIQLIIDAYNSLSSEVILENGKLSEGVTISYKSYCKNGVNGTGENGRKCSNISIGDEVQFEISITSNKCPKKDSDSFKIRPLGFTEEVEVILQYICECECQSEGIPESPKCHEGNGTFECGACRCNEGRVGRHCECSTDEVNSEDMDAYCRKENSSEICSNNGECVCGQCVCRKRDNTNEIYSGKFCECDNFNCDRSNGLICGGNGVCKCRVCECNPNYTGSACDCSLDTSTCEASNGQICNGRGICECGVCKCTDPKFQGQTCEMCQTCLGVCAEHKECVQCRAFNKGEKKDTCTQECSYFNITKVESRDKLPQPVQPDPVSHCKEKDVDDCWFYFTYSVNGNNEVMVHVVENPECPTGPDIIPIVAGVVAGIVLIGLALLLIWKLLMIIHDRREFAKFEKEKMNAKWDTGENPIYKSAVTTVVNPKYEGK
# Protocol details: α4β1-VCAM Cell Adhesion Assay
# Measurement parameters: thioether peptide dimers, Table 7; read-out: Cell Adhesion A4B1
pIC50: −log10 of the molar value. Where a SMILES comes first, the peptide text is derived from it.
Below, each of the compounds is paired with its reported pIC50 value.

Here are 5 compounds together with their reported answers.
{"Compound": "CC(C)C[C@@H]1NC(=O)[C@H]([C@@H](C)O)NC(=O)[C@H](CC(=O)O)NC(=O)[C@H](CO)NC(=O)[C@H](CCCNC(=N)N)N(C)C(=O)c2ccccc2CSC(C)(C)[C@@H](C(=O)N[C@@H](Cc2ccccc2)C(=O)N[C@@H](CCC(=O)O)CC(=O)N[C@H](CCCCN)C(N)=O)NC1=O [compound 164] (HELM PEPTIDE1{[meR].S.D.T.L.[Pen].F.[O=C(O)CC[C@@H](CC(=O)[*:2])N[*:1]].[dK].[am]}|CHEM1{[O=C(c1ccccc1C[*:2])[*:1]]}$PEPTIDE1,CHEM1,1:R1-1:R1|PEPTIDE1,CHEM1,6:R3-1:R2$$$V2.0)", "Result": "< 4.00"}
{"Compound": "CC(C)C[C@@H]1NC(=O)[C@H]([C@@H](C)O)NC(=O)[C@H](CC(=O)O)NC(=O)[C@H](CO)NC(=O)[C@H](CCCNC(=N)N)N(C)C(=O)c2ccccc2CSC(C)(C)[C@@H](C(=O)N[C@@H](Cc2ccc3ccccc3c2)C(=O)N[C@@H](CCC(=O)O)CC(=O)N[C@H](CCCCN)C(N)=O)NC1=O [compound 161]", "Result": "< 4.00"}
{"Compound": "CC(C)C[C@@H]1NC(=O)[C@H]([C@@H](C)O)NC(=O)[C@H](CC(=O)O)NC(=O)[C@H](CO)NC(=O)[C@H](CCCNC(=N)N)N(C)C(=O)c2ccccc2CSC(C)(C)[C@@H](C(=O)N[C@@H](Cc2c[nH]c3ccccc23)C(=O)N[C@@H](CCC(=O)O)C(=O)N(C)[C@H](CCCCN)C(N)=O)NC1=O [compound 152] (HELM PEPTIDE1{[meR].S.D.T.L.[Pen].W.E.[CN([C@H](CCCCN)C(=O)[*:2])[*:1]].[am]}|CHEM1{[O=C(c1ccccc1C[*:2])[*:1]]}$PEPTIDE1,CHEM1,1:R1-1:R1|PEPTIDE1,CHEM1,6:R3-1:R2$$$V2.0)", "Result": "< 4.00"}
{"Compound": "CC(C)C[C@@H]1NC(=O)[C@H]([C@@H](C)O)NC(=O)[C@H](CC(=O)O)NC(=O)[C@H](CO)NC(=O)[C@H](CCCNC(=N)N)N(C)C(=O)c2ccccc2CSC(C)(C)[C@@H](C(=O)N[C@@H](Cc2c[nH]c3ccccc23)C(=O)N[C@H](CCC(=O)O)C(=O)N[C@@H](CO)C(=O)N[C@H](CCCCN)C(N)=O)NC1=O [compound 191] (HELM PEPTIDE1{[meR].S.D.T.L.[Pen].W.[dE].S.[dK].[am]}|CHEM1{[O=C(c1ccccc1C[*:2])[*:1]]}$PEPTIDE1,CHEM1,1:R1-1:R1|PEPTIDE1,CHEM1,6:R3-1:R2$$$V2.0)", "Result": "< 4.00"}
{"Compound": "CC(C)C[C@@H]1NC(=O)[C@H]([C@@H](C)O)NC(=O)[C@H](CC(=O)O)NC(=O)[C@H](CO)NC(=O)[C@H](CCCNC(=N)N)N(C)C(=O)c2ccccc2CSC(C)(C)[C@@H](C(=O)N[C@@H](Cc2ccc(O)cc2)C(=O)N[C@@H](CCC(=O)O)C(=O)N[C@H](CCCCN)C(N)=O)NC1=O [compound 168] (HELM PEPTIDE1{[meR].S.D.T.L.[Pen].Y.E.[dK].[am]}|CHEM1{[O=C(c1ccccc1C[*:2])[*:1]]}$PEPTIDE1,CHEM1,1:R1-1:R1|PEPTIDE1,CHEM1,6:R3-1:R2$$$V2.0)", "Result": "< 4.00"}

We now examine a further compound.
query: Form field: reported pIC50 of CC(C)C[C@@H]1NC(=O)[C@H]([C@@H](C)O)NC(=O)[C@H](CC(=O)O)NC(=O)[C@H](CO)NC(=O)[C@H](CCCNC(=N)N)N(C)C(=O)c2ccccc2CSC(C)(C)[C@@H](C(=O)N[C@@H](Cc2ccc(O)cc2)C(=O)N[C@H](CCC(=O)O)C(=O)N[C@H](CCCCN)C(N)=O)NC1=O [compound 169] (HELM PEPTIDE1{[meR].S.D.T.L.[Pen].Y.[dE].[dK].[am]}|CHEM1{[O=C(c1ccccc1C[*:2])[*:1]]}$PEPTIDE1,CHEM1,1:R1-1:R1|PEPTIDE1,CHEM1,6:R3-1:R2$$$V2.0)
result: < 4.00
